Task for the reader: assign each of the following compounds its reported growth.
- System: KM12 colon
- assay comment: NCI-60 one-dose screen, 48 h (100 = growth as untreated, 0 = no growth, -100 = all killed)
- reported conditions: 10 µM unless noted
This is part of a sample that, as a whole, favours compounds with a hit. Of some 83,000 tested, about 20% had one in any assay.
Write the value in % as a bare number.

Indicate the recorded growth value for this compound: CN1C(N2CCN(S(=O)(=O)c3ccccc3)CC2)=NS(=O)(=O)c2ccccc21
91.5

Indicate the recorded growth value for this compound: COc1cc(/C=C/C(=O)c2nc3cc(F)ccc3nc2C)cc(OC)c1OC
36.2

Indicate the recorded growth value for this compound: COc1cc(/C=C\c2cc(OC)c(OC)c(OC)c2)cc(NC(=O)/C=C/c2cc(OC)c(OC)c(OC)c2)c1OC
28.7

Indicate the recorded growth value for this compound: O=C(/C(=C\c1ccc([N+](=O)[O-])cc1)S(=O)Cc1ccc(F)cc1)c1ccc(F)cc1 (stereo unspecified)
43.4

Indicate the recorded growth value for this compound: CCOc1ccc(Nc2nc(-c3ccc4c(c3)NC(=O)CO4)cs2)cc1
67.9

Indicate the recorded growth value for this compound: COc1ccc(OC)c(-c2cc(-c3ccc(Cl)cc3)c3c(N)c(C(=O)c4ccc(Cl)cc4)sc3n2)c1
100
